Listed below: growth values for each entry.
test system: SF-295 CNS; experiment: NCI-60 one-dose screen, 48 h (100 = growth as untreated, 0 = no growth, -100 = all killed); details: 10 µM unless noted
Compounds without any hit were thinned out: in the full panel of roughly 83,000, 20% have a hit.
Write the answer as a number in %, unit excluded.

O=C1Nc2ccc(F)cc2/C1=C\C(=O)c1ccc(NS(=O)(=O)c2ccccc2)cc1
96.4
CCNC(=O)Oc1ccc(/C(=C(/C)c2ccc(OC)cc2)c2ccc(OCCN3CCCCCC3)cc2)cc1
-20.9
CCOC(=O)c1c(NC(=O)c2ccc(C(F)(F)F)cc2)sc2c3c(ccc12)OCN(C)C3
66.2
Cn1c(SCC(=O)c2ccco2)nc2ccccc2c1=O
104
CN1c2ccccc2Sc2cc(/C=N/Nc3ccnc4cc(Cl)ccc34)ccc21
98.7

# growth lookup, item O=C(CN1CCN(c2cc(=O)[nH]c3ccc(F)cc23)CC1)N(c1ccccc1)c1ccccc1 107

Next record, please: CCN(CC)c1ccc(/C=N/NC(=O)c2ccc(NS(C)(=O)=O)cc2)cc1 11.4

Next record, please: COc1cc2oc(-c3cccc(NC(=O)[C@@H](N)C(C)C)c3)cc(=O)c2c(OC)c1OC 96.7

Next record, please: CCC(=C(c1ccc(OCCN(C)C)cc1)c1ccc(OCCN(C)C)cc1)c1ccc(Cl)cc1 -72.2

Next record, please: COc1ccc(-c2c3c(cn2Cc2cccc(OC)c2)-c2oncc2CCC3)cc1 97

Next record, please: COc1cc(OC)cc(-c2cc(-c3c[nH]c4ccccc34)nc(-c3c[nH]c4ccccc34)c2C#N)c1 101

Next record, please: N#C/C(=N\Nc1ccc(F)cc1)C(=O)Nc1cc(-c2ccccc2)nn1-c1ccccc1 2.07

Next record, please: Cc1c(C(=O)/C=C/c2ccc(Cl)cc2)nnn1-c1ccc2oc(=O)ccc2c1 88.9

Next record, please: CN1CCC[C@]2(C)[C@H]3CC[C@@H]4[C@@H]5[C@H]6OC[C@@]5(CCC6(C)C)CC[C@@]4(C)[C@]3(C)CC[C@H]2C1(C)C 103

Next record, please: CC1=C(C)C(=O)C(Nc2ccc(C)cc2)=C(Br)C1=O 98.1

Next record, please: O=C1c2ccccc2C23C(=C(c4cncnc4)c4ccccc42)CCCN13 (stereo not drawn) 95.9

Next record, please: Cc1ccc2c(n1)C(=O)C(Cl)=C(Nc1ccc(C(C)C)cc1)C2=O 82.8

---

tested on: MDA-MB-435 melanoma; assay: NCI-60 one-dose screen, 48 h (100 = growth as untreated, 0 = no growth, -100 = all killed); details: 10 µM unless noted
Compounds without any hit were thinned out: in the full panel of roughly 83,000, 20% have a hit.
Listed below: growth values for each entry.
Write the answer as a number in %, unit excluded.

O=c1nc(Nc2ccc([N+](=O)[O-])cc2O)sc2ccccc12
-42.9
O=c1c2ccccc2cc2n1CCN=C2c1ccccc1
104
CC1=C(C)C(=O)C(Nc2cccc(C)c2)=C(Br)C1=O
109

# growth lookup, item CC1=C(C)C(=O)C(Nc2ccc3c(c2)OCO3)=C(Br)C1=O 103

Next record, please: C#CCn1cc(/C=N/Nc2nc(-c3ccc(Br)cc3)cs2)c2ccccc21 106

---

System: DU-145 prostate
Test: NCI-60 one-dose screen, 48 h (100 = growth as untreated, 0 = no growth, -100 = all killed)
Details: 10 µM unless noted
Description: Cells are grown in 96 well plates and exposed to the test compound for 48 hours. Compounds are tested at a single concentration, which is 10^-5 M for most compounds. The reported endpoint is percent growth (GI% or GIPRCNT), where numbers from 0 - 100% represent growth inhibition, and numbers from -100% - 0 represent cell death. For example, a value of 40 represents 60% growth inhibition. A value of 0 means no net growth occurred over the course of the experiment. […]
About 83,000 compounds went through this panel and 20% of them were active in at least one assay; those are over-represented in the sample as a whole.
measuredMetric: growth (%)
Write the answer as a number in %, unit excluded.

Reference set (3 entries):
NS(=O)(=O)c1cccc(Nc2nc(SCC(=O)c3ccc(Cl)cc3)nc3c2CCC3)c1
97.6
CCOP(=O)(OCC)OC[C@]12CC[C@@H](C)[C@H](C)C1C1=CC[C@@H]3[C@@]4(C)CCCNC(C)(C)[C@@H]4CC[C@@]3(C)[C@]1(C)CC2 (some centres undefined)
1.04
CCc1cc2c(cc1Cl)nc1c(=O)[nH]c(=O)nc-1n2CCOCC(C)C
95

Recorded growth for Cc1ccc2c(n1)C(=O)C(Cl)=C(Nc1ccccc1C(=O)OC(C)(C)C)C2=O with DU-145 prostate, please? -56.2
